IC50 for assorted compounds
System: A498 complex spheroids with HUVEC/MSC, growth
Experiment: Anticancer human tumor A498 cell line growth inhibition [AhR];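 further: seven day exposure starting three days after spheroid seeding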
Conditions: curve of first compound; second compound 10 µM
Description: Multicellular complex tumor spheroid response to aryl hydrocarbon receptor antagonists in combination with a variety of drugs and investigational agents in selected tumor cell lines […] Compounds. […] If the clinical Cmax for an agent had not been determined, the highest concentration tested was 10 microM (Table 1). […]
OUTCOME MEASURE: IC50

* Nc1ncn(C2CC(O)C(CO)O2)c(=O)n1 (stereo not drawn) + Cc1ccccc1N=Nc1ccc(NC(=O)c2ccnn2C)c(C)c1 | > 1000 nM
* O=C(C=Cn1cnc(-c2cc(C(F)(F)F)cc(C(F)(F)F)c2)n1)NNc1cnccn1 + Cc1cncc(-c2nc(NCCc3c[nH]c4ccccc34)c3ncn(C(C)C)c3n2)c1 | < 9.49 nM
* Nc1ncn(C2CC(O)C(CO)O2)c(=O)n1 (stereo not drawn) + Cc1cncc(-c2nc(NCCc3c[nH]c4ccccc34)c3ncn(C(C)C)c3n2)c1 | < 3.16 nM
* O=C(c1cc(Cc2n[nH]c(=O)c3ccccc23)ccc1F)N1CCN(C(=O)C2CC2)CC1 + Cc1ccccc1N=Nc1ccc(NC(=O)c2ccnn2C)c(C)c1 | > 10000 nM
* CC(C)c1c(-c2ccccc2)nc2c(C#N)c[nH]n2c1=O + Cc1ccccc1N=Nc1ccc(NC(=O)c2ccnn2C)c(C)c1 | > 10000 nM
* COc1cc(Nc2ncc3c(n2)-c2ccc(Cl)cc2C(c2c(F)cccc2OC)=NC3)ccc1C(=O)O + Cc1cncc(-c2nc(NCCc3c[nH]c4ccccc34)c3ncn(C(C)C)c3n2)c1 | < 31.6 nM
* CC1(C)CCC(CN2CCN(c3ccc(C(=O)NS(=O)(=O)c4ccc(NCC5CCOCC5)c([N+](=O)[O-])c4)c(Oc4cnc5[nH]ccc5c4)c3)CC2)=C(c2ccc(Cl)cc2)C1 + Cc1cncc(-c2nc(NCCc3c[nH]c4ccccc34)c3ncn(C(C)C)c3n2)c1 | < 31.6 nM
* Nc1ccccc1NC(=O)c1ccc(CNC(=O)OCc2cccnc2)cc1 + Cc1cncc(-c2nc(NCCc3c[nH]c4ccccc34)c3ncn(C(C)C)c3n2)c1 | < 31.6 nM
* O=C(c1cc(Cc2n[nH]c(=O)c3ccccc23)ccc1F)N1CCN(C(=O)C2CC2)CC1 + Cc1cncc(-c2nc(NCCc3c[nH]c4ccccc34)c3ncn(C(C)C)c3n2)c1 | < 31.6 nM
* CC(C)CC(NC(=O)C(Cc1ccccc1)NC(=O)c1cnccn1)B(O)O (stereo not drawn) + Cc1cncc(-c2nc(NCCc3c[nH]c4ccccc34)c3ncn(C(C)C)c3n2)c1 | < 0.949 nM
* CC(C)c1c(-c2ccccc2)nc2c(C#N)c[nH]n2c1=O + CC(CO)NC(=O)c1cc(-c2ccc(Cl)cc2)nn(-c2cnn(C)c2)c1=O | > 10000 nM
* Nc1ccn(C2OC(CO)C(O)C2(F)F)c(=O)n1 (stereo not drawn) + CC(CO)NC(=O)c1cc(-c2ccc(Cl)cc2)nn(-c2cnn(C)c2)c1=O | < 31.6 nM
* NS(=O)(=O)OCC1CC(n2ccc3c(NC4CCc5ccccc54)ncnc32)CC1O (stereo not drawn) + Cc1cncc(-c2nc(NCCc3c[nH]c4ccccc34)c3ncn(C(C)C)c3n2)c1 | < 31.6 nM
